- Tested on: Human immunodeficiency virus
- ASSAY DETAILS: Antiviral activity against Human immunodeficiency virus infected in MT4 cell incubated for 72 hrs by CPE based microscopic assay
- Format: functional, organism-based
- CONDITION SUMMARY: Human immunodeficiency virus 1, MT4, 72 h
MEASUREMENT LABEL: EC50 (nM)
Answer format: numeric, nM implied, no suffix.

Prompt: Find the recorded EC50 belonging to Cc1cn(C2CC(N=[N+]=[N-])C(CO[PH](=O)OC3CCC4(C)C(C=CC5C4CCC4(C)C(C(C)CCCC(C)C)CCC54)C3)O2)c(=O)[nH]c1=O (stereo unspecified) and report it.
Completion: 1

Data credit: ChEMBL document CHEMBL5241061
